Assign post-emergent herbicidal activity index to each entry below.
Tested on: Yellow Nutsedge
Protocol Details: post-emergent herbicidal activity, greenhouse
Format: in vivo
Experimental Context: Table I, 4 WAT, 11.2 kg/h

[[record]]
compound = "CCOC(=O)CNCP(=O)(OCc1ccco1)OCc1ccco1"
measure = "post-emergent herbicidal activity index"
reported_value = "0 (0-24% control)"

[[record]]
compound = "CCOC(=O)CNCP(=O)(OC1CCCSC1)OC1CCCSC1 (centres unmarked)"
measure = "post-emergent herbicidal activity index"
reported_value = "0 (0-24% control)"

[[record]]
compound = "N#CCCOP(=O)(CNCC#N)OCCC#N"
measure = "post-emergent herbicidal activity index"
reported_value = "1 (25-49% control)"

[[record]]
compound = "CCOC(=O)CNCP(=O)(OC(C)CC(=O)OCC)OC(C)CC(=O)OCC (centres unmarked)"
measure = "post-emergent herbicidal activity index"
reported_value = "1 (25-49% control)"

[[record]]
compound = "CCOC(=O)CNCP(=O)(O)OC(C)C(=O)OC (centres unmarked)"
measure = "post-emergent herbicidal activity index"
reported_value = "3 (75-99% control)"

[[record]]
compound = "CCOCCOC(=O)CNCP(=O)(O)OC(C)C#N (centres unmarked)"
measure = "post-emergent herbicidal activity index"
reported_value = "3 (75-99% control)"

[[record]]
compound = "CC(C#N)OP(=O)(O)CNCC(=O)OCc1ccccc1 (centres unmarked)"
measure = "post-emergent herbicidal activity index"
reported_value = "1 (25-49% control)"

[[record]]
compound = "CCOC(=O)CNCP(=O)(OCC1CCCCO1)OCC1CCCCO1 (centres unmarked)"
measure = "post-emergent herbicidal activity index"
reported_value = "0 (0-24% control)"


The following compounds each have a reported value; give each one's post-emergent herbicidal activity index.
1. CCOC(=O)CNCP(=O)(OC(C)C(=O)OC)OC(C)C(=O)OC (centres unmarked)
2. CCOC(=O)CNCP(=O)(O)OC(C)CC(=O)OCC (centres unmarked)
3. CCOC(=O)CNCP(=O)(OCC1COC(C)(C)O1)OCC1COC(C)(C)O1 (centres unmarked)
4. CCOC(=O)CNCP(=O)(OCCCl)OCCCl

*A*
2 (50-74% control)
2 (50-74% control)
0 (0-24% control)
0 (0-24% control)

The following compounds each have a reported value; give each one's post-emergent herbicidal activity index.
1. CC(C#N)OP(=O)(CNCC#N)OC(C)C#N (centres unmarked)
2. CCOC(=O)CNCP(=O)(OC(C)(C)C#N)OC(C)(C)C#N
3. CCOC(=O)CNCP(=O)(OCCN1CCCC1)OCCN1CCCC1
4. CC(C#N)OP(=O)(O)CNCC(=O)OCCCl (centres unmarked)
5. CCOC(=O)CNCP(=O)(OC(C)C#N)OC(C)C#N (centres unmarked)
6. CCOC(=O)CNCP(=O)(OCCSC(=O)OCC)OCCSC(=O)OCC
7. CCOC(=O)CNCP(=O)(O)OC(C#N)CC (centres unmarked)

*A*
1. 3 (75-99% control)
2. 0 (0-24% control)
3. 1 (25-49% control)
4. 3 (75-99% control)
5. 3 (75-99% control)
6. 1 (25-49% control)
7. 4 (100% control)

The following compounds each have a reported value; give each one's post-emergent herbicidal activity index.
1. CCOC(=O)CNCP(=O)(O)OCC(Cl)(Cl)Cl [Example 27]
2. CCOC(=O)CNCP(=O)(O)OCC(Cl)(Cl)Cl [Example 26]
3. CCCCCOC(=O)CNCP(=O)(O)OC(C)C#N (centres unmarked) [Example 6, hemihydrate]
4. CCOC(=O)CNCP(=O)(OC(C)C(=O)OCC)OC(C)C(=O)OCC (centres unmarked)

*A*
1: 2 (50-74% control); 2: 0 (0-24% control); 3: 4 (100% control); 4: 1 (25-49% control)

----------
Tested on: Cocklebur
Protocol Details: pre-emergent herbicidal activity, soil incorporation
Type: in vivo
Experimental Context: Table III, 2 WAT, 11.2 kg/h
Assign pre-emergent herbicidal activity index to each entry below.

[[record]]
compound = "CCOCCOC(=O)CNCP(=O)(O)OC(C)C#N (stereo not drawn)"
reported_value = "0 (1-24% control)"

[[record]]
compound = "CC(C#N)OP(=O)(O)CNCC(=O)OCCCl (stereo not drawn)"
reported_value = "0 (1-24% control)"

[[record]]
compound = "CCOC(=O)CNCP(=O)(O)OC(C)C#N (stereo not drawn)"
reported_value = "0 (1-24% control)"

[[record]]
compound = "CC(C#N)OP(=O)(O)CNCC(=O)OCc1ccccc1 (stereo not drawn)"
reported_value = "0 (1-24% control)"

[[record]]
compound = "CCOC(=O)CNCP(=O)(O)OC(C#N)CC (stereo not drawn)"
reported_value = "0 (1-24% control)"


Then this compound:
*Q* What value of measured pre-emergent herbicidal activity index is listed for CCCCCOC(=O)CNCP(=O)(O)OC(C)C#N (stereo not drawn) [Example 6, hemihydrate] ?
*A* 0 (1-24% control)

----------
Test system: Morningglory
Protocol Details: post-emergent herbicidal activity, greenhouse
Format: in vivo
Experimental Context: Table I, 4 WAT, 5.6 kg/h
Source text: A good grade of top soil is placed in aluminum pans having holes in the bottom and compacted to a depth of 0.95 to 1.27 cm. from the top of the pan. […] The pans are returned to the greenhouse and watered as before and the injury to the plants as compared to the control is observed at approximately two and four weeks as indicated in the tables under WAT and the results recorded. […]
Assign post-emergent herbicidal activity index to each entry below.

Observe how each entry below is paired with its result.
[[record]]
compound = "CCOC(=O)CNCP(=O)(O)OC(C)CC(=O)OCC (stereo not drawn) [Example 25]"
reported_value = "1 (25-49% control)"

[[record]]
compound = "CCOC(=O)CNCP(=O)(O)OC(C#N)CC (stereo not drawn) [Example 8]"
reported_value = "2 (50-74% control)"

[[record]]
compound = "CC(C#N)OP(=O)(O)CNCC(=O)OCCCl (stereo not drawn) [Example 7]"
reported_value = "2 (50-74% control)"


The following compounds each have a reported value; give each one's post-emergent herbicidal activity index.
1. CCOC(=O)CNCP(=O)(OC(C)C#N)OC(C)C#N (stereo not drawn) [Example 1]
2. CCOC(=O)CNCP(=O)(O)OC(C)C(=O)OC (stereo not drawn) [Example 28]
3. CCOC(=O)CNCP(=O)(OC(C)C(=O)OC)OC(C)C(=O)OC (stereo not drawn) [Example 18]

*A*
3 (75-99% control)
1 (25-49% control)
1 (25-49% control)

----------
Tested on: Yellow Nutsedge
Protocol Details: post-emergent herbicidal activity, greenhouse
Format: in vivo
Experimental Context: Table I, 4 WAT, 5.6 kg/h
Measure: post-emergent herbicidal activity index

Observe how each entry below is paired with its result.
[[record]]
compound = "CCOC(=O)CNCP(=O)(O)OC(C#N)CC (stereo not shown)"
reported_value = "3 (75-99% control)"

[[record]]
compound = "CCOC(=O)CNCP(=O)(OCCSC(=O)OCC)OCCSC(=O)OCC"
reported_value = "0 (0-24% control)"

[[record]]
compound = "CCOC(=O)CNCP(=O)(OC(C)C(=O)OCC)OC(C)C(=O)OCC (stereo not shown)"
reported_value = "1 (25-49% control)"


Then this compound:
*Q* What value of measured post-emergent herbicidal activity index is listed for CCCCCOC(=O)CNCP(=O)(O)OC(C)C#N (stereo not shown) [Example 6, hemihydrate] ?
*A* 2 (50-74% control)

----------
Tested on: Rice
Protocol Details: post-emergent herbicidal activity, greenhouse
Assay type: in vivo
Experimental Context: Table II, 4 WAT, 1.12 kg/h
Measure: post-emergent herbicidal activity index

The following compounds each have a reported value; give each one's post-emergent herbicidal activity index.
1. CCOC(=O)CNCP(=O)(OCCN1CCCC1)OCCN1CCCC1
2. CC(C#N)OP(=O)(O)CNCC(=O)OCCCl (stereo not shown)
3. CC(C#N)OP(=O)(O)CNCC(=O)OCc1ccccc1 (stereo not shown)

*A*
1. 0 (0-24% control)
2. 3 (75-99% control)
3. 1 (25-49% control)

----------
System: Quackgrass
Protocol Details: post-emergent herbicidal activity, greenhouse
Assay type: in vivo
Experimental Context: Table I, 4 WAT, 5.6 kg/h
Assign post-emergent herbicidal activity index to each entry below.

Observe how each entry below is paired with its result.
[[record]]
compound = "CCOCCOC(=O)CNCP(=O)(O)OC(C)C#N (centres unmarked)"
reported_value = "4 (100% control)"

[[record]]
compound = "CCOC(=O)CNCP(=O)(OC(C)C(=O)OC)OC(C)C(=O)OC (centres unmarked)"
reported_value = "0 (0-24% control)"

[[record]]
compound = "CC(C#N)OP(=O)(O)CNCC(=O)OCCCl (centres unmarked)"
reported_value = "2 (50-74% control)"

[[record]]
compound = "CC(C#N)OP(=O)(CNCC#N)OC(C)C#N (centres unmarked)"
reported_value = "1 (25-49% control)"

[[record]]
compound = "CCOC(=O)CNCP(=O)(OCCSC(=O)OCC)OCCSC(=O)OCC"
reported_value = "0 (0-24% control)"


The following compounds each have a reported value; give each one's post-emergent herbicidal activity index.
1. CCOC(=O)CNCP(=O)(O)OC(C#N)CC (centres unmarked)
2. CCOC(=O)CNCP(=O)(O)OC(C)C(=O)OC (centres unmarked)
3. CCOC(=O)CNCP(=O)(OCCN1CCCC1)OCCN1CCCC1
4. CCOC(=O)CNCP(=O)(O)OC(C)CC(=O)OCC (centres unmarked)

*A*
["4 (100% control)", "0 (0-24% control)", "1 (25-49% control)", "0 (0-24% control)"]

The following compounds each have a reported value; give each one's post-emergent herbicidal activity index.
1. CCOC(=O)CNCP(=O)(O)OCC(Cl)(Cl)Cl
2. CC(C#N)OP(=O)(O)CNCC(=O)OCc1ccccc1 (centres unmarked)
3. CCOC(=O)CNCP(=O)(OC(C)C#N)OC(C)C#N (centres unmarked)

*A*
["1 (25-49% control)", "2 (50-74% control)", "3 (75-99% control)"]

The following compounds each have a reported value; give each one's post-emergent herbicidal activity index.
1. CCOC(=O)CNCP(=O)(OC(C)C(=O)OCC)OC(C)C(=O)OCC (centres unmarked)
2. CCCCCOC(=O)CNCP(=O)(O)OC(C)C#N (centres unmarked) [Example 6, hemihydrate]

*A*
["0 (0-24% control)", "2 (50-74% control)"]
